- System: A549 cells
- test.description: Inhibition of KRas-mediated phosphorylation of ERK (Cisbio HTRF pERK), A549 cells
- Assay type: cell-based
- run.parameters: Homo sapiens, A549, 3 h, 3 hr compound incubation, Cisbio pERK HTRF
Please respond with reported IC50 for every item in the list.
Answers are plain numbers, in nM.

Examples with answers:
molecule	assayed.target	IC50, nM
CCc1c(F)ccc2cc(O)cc(N3CCc4c(nc(OC[C@@]56CCCN5C[C@H](F)C6)nc4N4CCCn5nc(C(=O)N6C7CCC6CC7)cc5C4)C3)c12 [Example 340]	A549 cells	11
CCNC(=O)c1nn2c(c1Cl)CN(c1nc(OC[C@@]34CCCN3C[C@H](F)C4)nc3c1CCN(c1cc(O)cc4ccc(F)c(CC)c14)C3)CCC2 [Example 367]	A549 cells	5
CCc1c(F)ccc2cc(O)cc(N3CCc4c(nc(OC[C@@]56CCCN5C[C@H](F)C6)nc4N4CCCn5nc(C(=O)N(C)C)c(COC)c5C4)C3)c12 [Example 269]	A549 cells	2
O=C1CC2(CCCN(c3nc(OC[C@@]45CCCN4C[C@H](F)C5)nc4c3CCN(c3cc(O)cc5ccc(F)c(Cl)c35)C4)C2)C(=O)N1 (stereo partly drawn) [Example 467]	A549 cells	226
CCc1c(F)ccc2cc(O)cc(N3CCc4c(nc(OCC5(CN(C)C)CC5)nc4N4CCCC5(CCO5)C4)C3)c12 (stereo not drawn) [Example 588]	A549 cells	455

Kindly give each listed record's IC50.
1. CCc1c(F)ccc2cc(O)cc(N3CCc4c(nc(OC[C@@]56CCCN5C[C@H](F)C6)nc4N4CCCCn5nc(C(=O)N(C)C)cc5C4)C3)c12 [Example 349]
2. CCc1c(F)ccc2cc(O)cc(N3CCc4c(nc(OC[C@@]56CCCN5C[C@H](F)C6)nc4N4CCCCn5nc(C(=O)N(C)C)c(Cl)c5C4)C3)c12 [Example 589]
3. CCc1c(F)ccc2cc(O)cc(N3CCc4c(nc(OC[C@@]56CCCN5C[C@H](F)C6)nc4N4C[C@H]5C[C@@H](C4)C(=O)NC5=O)C3)c12 [Example 416]

## Output
1: 6; 2: 6; 3: 100

Kindly give each listed record's IC50.
1. CCc1c(F)ccc2cc(O)cc(N3CCc4c(nc(OC[C@@]56CCCN5C[C@H](F)C6)nc4N4CCCn5nc(C(=O)N(C)CCOC)cc5C4)C3)c12 [Example 382]
2. CCc1c(F)ccc2cc(O)cc(N3CCc4c(nc(OC[C@@]56CCCN5C[C@H](F)C6)nc4N4CCCn5nc(N)c(Cl)c5C4)C3)c12 [Example 358]
3. CCc1c(F)ccc2cc(O)cc(N3CCc4c(nc(OC[C@@]56CCCN5C[C@H](F)C6)nc4N4CCCn5nc(C(=O)NC)c(C)c5C4)C3)c12 [Example 380]
4. CCc1c(F)ccc2cc(O)cc(N3CCc4c(nc(OC[C@@]56CCCN5C[C@H](F)C6)nc4N4CCCn5nc(N(C)C)cc5C4)C3)c12 [Example 405]
5. C=C1CN2CC(=C)CC2(COc2nc3c(c(N4CCC[C@@](C)(O)C4)n2)CCN(c2cc(O)cc4ccc(F)c(CC)c24)C3)C1 [Example 582]
6. CCc1c(F)ccc2cc(O)cc(N3CCc4c(nc(OC[C@@]56CCCN5C[C@H](F)C6)nc4N4CCCCn5nc(C(=O)N6CCOCC6)cc5C4)C3)c12 [Example 360]

## Output
1. 15
2. 10
3. 2
4. 273
5. 86
6. 9

## Input Provide only the value of recorded IC50 for CCc1c(F)ccc2cc(O)cc(N3CCc4c(nc(OC[C@@]56CCCN5C[C@H](F)C6)nc4N4Cc5cn(C(=O)N(C)C)nc5CC(C)(C)C4)C3)c12 [Example 424]
## Output 698

Measured values drawn from patent US20250368649A1 for this set.
